These data points were gathered from ChEMBL document CHEMBL6087482.

- assay comment: AUC in Sprague-Dawley rat at 3 mg/kg, po or 1 mg/kg, iv measured after 24 hrs by LC-MS/MS analysis
- Type: ADME, organism-based
- settings: in vivo
Reported AUC at 24 h values follow for various compounds
Quick note: unit goes after the number.

>>> df
                                 smiles_str  recorded_value
0  Cc1cc(-c2nc3c(F)c(-c4cccc5ccc(F)cc45)c(CCC#N)cc3c3c2cc(CN2CCOCC2=O)n3[C@H]2[C@H]3CN[C@@H]2C3)ccn1      0.108 µM·h

Answer with the recorded AUC at 24 h of `Cc1cnc(-c2nc3c(F)c(-c4cccc(Cl)c4C)c(CCC#N)cc3c3c2cc([C@@H](C)N2CCOCC2=O)n3[C@H]2[C@H]3CN[C@@H]2C3)cn1` only.
0.331 µM·h
